# tested.system: Myotonin-protein kinase (Homo sapiens, UniProt Q09013)
# Sequence (Q09013 whole entry): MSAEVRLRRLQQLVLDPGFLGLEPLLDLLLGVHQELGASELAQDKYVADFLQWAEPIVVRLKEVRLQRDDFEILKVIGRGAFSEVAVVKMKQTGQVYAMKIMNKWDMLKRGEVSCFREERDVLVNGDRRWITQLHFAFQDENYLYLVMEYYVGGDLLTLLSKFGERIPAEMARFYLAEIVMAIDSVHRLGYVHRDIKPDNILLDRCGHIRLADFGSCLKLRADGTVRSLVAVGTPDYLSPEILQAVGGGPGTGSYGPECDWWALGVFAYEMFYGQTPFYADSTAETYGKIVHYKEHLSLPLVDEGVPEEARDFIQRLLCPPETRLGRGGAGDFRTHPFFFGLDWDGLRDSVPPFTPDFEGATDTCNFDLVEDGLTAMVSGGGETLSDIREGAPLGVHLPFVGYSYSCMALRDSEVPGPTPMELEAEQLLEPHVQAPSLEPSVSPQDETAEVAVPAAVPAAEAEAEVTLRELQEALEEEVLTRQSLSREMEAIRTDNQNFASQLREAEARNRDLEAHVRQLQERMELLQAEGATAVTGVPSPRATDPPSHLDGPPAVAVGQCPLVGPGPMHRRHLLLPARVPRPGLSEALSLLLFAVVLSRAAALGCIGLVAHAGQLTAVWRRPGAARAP
For reference, the following IC50 results for Myotonin-protein kinase (Homo sapiens, UniProt Q09013) were taken from various sources.

# structure, IC50
rows = [
    ("COC(=O)Nc1cc(-c2ccc(OC[C@@](C)(N)CC(C)C)c(C(F)F)n2)ccn1", "1500 nM"),
    ("CN(C)CCOc1cc(-c2ncc(-c3cccc(-c4cnco4)n3)o2)nc(-c2ncc(-c3cccc(-c4cnco4)n3)o2)c1", "> 1000 nM"),
    ("Cc1ccc(CNc2nc(N)nc3[nH]c4cc(C)c(O)cc4c23)cc1", "> 100000 nM"),
    ("O=C(Nc1ccc(Oc2ncnc3[nH]ncc23)cc1)Nc1ccc(Cl)c(C(F)(F)F)c1", "> 10000 nM"),
    ("c1cc(-c2cnco2)nc(-c2cnc(-c3cccc(-c4ncc(-c5cccc(-c6cnco6)n5)o4)n3)o2)c1", "> 1000 nM"),
    ("Oc1cccc(Nc2ccnc3[nH]c4ccccc4c23)c1", "> 10000 nM"),
    ("c1cc(-c2cnco2)nc(-c2cnc(-c3cccc(-c4cccc(-c5ncc(-c6cccc(-c7cnco7)n6)o5)n4)n3)o2)c1", "> 1000 nM"),
]
